The values you see were collected from patent US20030113810A1.

# ASSAY_TARGET: rGPR41 (Rattus norvegicus, UniProt B2GV46)
# Sequence (B2GV46 whole entry): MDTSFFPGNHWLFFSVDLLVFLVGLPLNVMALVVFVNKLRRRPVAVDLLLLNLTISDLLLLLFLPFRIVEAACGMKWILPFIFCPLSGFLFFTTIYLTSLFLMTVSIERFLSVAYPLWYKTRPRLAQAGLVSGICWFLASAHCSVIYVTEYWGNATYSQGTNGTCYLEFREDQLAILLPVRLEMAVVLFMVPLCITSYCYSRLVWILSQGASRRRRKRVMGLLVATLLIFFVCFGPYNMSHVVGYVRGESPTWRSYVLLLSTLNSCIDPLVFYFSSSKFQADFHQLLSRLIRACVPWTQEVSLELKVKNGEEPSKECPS
# TEST_DESCRIPTION: Yeast FUS1-lacZ/FUS1-HIS3 reporter assay, rGPR41 in S. cerevisiae MMY22 (Gpa1/Gαo), FDG substrate
# Format: cell-based
# Design: expressed in transfected cells; host or cells: S. cerevisiae MMY22 (A1, A5; Gpa1/Gαo integrated) or MMY11 + pRS314-Gpa1/Gαo (A4), transformed with p426GPD-rGPR41
# SETTINGS: yeast MMY22 with p462GPD-rGPR41; FDG fluorescence; compounds as salt solutions buffered to pH 7.0
ATTRIBUTE_MEASURED: Agonism @ rGPR41 Approx. EC50 (M)

Consider the reported Agonism @ rGPR41 Approx. EC50 (M) for these molecules:
> print(dat)
                             molecule                 attribute.measured  reported.result
1       C/C=C(\C)C(=O)O [tiglic acid]  Agonism @ rGPR41 Approx. EC50 (M)         Inactive
2    CCCCCCCC(=O)O [Caprylic C8 acid]  Agonism @ rGPR41 Approx. EC50 (M)      weak active
3                   NCCCC(=O)O [GABA]  Agonism @ rGPR41 Approx. EC50 (M)         Inactive
4        O=C(O)/C=C/C(=O)O [Fumarate]  Agonism @ rGPR41 Approx. EC50 (M)         Inactive
5  CCCCCCCCCCCCCCCCCC(=O)O [stearate]  Agonism @ rGPR41 Approx. EC50 (M)         Inactive

In: Returns the measured Agonism @ rGPR41 Approx. EC50 (M) for the input molecule. Input: CN[C@H](CC(=O)O)C(=O)O [NMDA]
Out: Inactive

In: How about NCC(=O)O [Glycine] ?
Out: Inactive

In: How about CCCCCCCCCCC(=O)O [Undecanoic C11 acid] ?
Out: inactive/toxic
